Molecular target: SCD1 (Rattus norvegicus (Rat), UniProt P07308)
Sequence (P07308 whole entry): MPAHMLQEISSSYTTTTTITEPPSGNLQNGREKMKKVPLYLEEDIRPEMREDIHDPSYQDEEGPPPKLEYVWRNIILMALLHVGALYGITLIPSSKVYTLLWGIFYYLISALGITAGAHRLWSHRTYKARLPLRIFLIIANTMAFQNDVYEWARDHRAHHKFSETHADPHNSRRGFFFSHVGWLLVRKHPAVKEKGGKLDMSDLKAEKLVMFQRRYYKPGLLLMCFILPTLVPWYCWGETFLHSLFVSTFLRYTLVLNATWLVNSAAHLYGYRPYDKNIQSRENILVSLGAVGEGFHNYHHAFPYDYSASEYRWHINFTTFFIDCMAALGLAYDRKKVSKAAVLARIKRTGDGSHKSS
Test: SCD1 enzymatic assay in rat liver microsomes (RLM)
Type: biochemical
Details: 1 μM test compound
# maps each entry to its inhibition at 1 µM
Write the answer as a number in %, unit excluded.

INSERT INTO results (compound, units_symbol, meas_value) VALUES
  ('O=C(Nc1ccc(CO)cc1)N1CCC(N2CCc3ccc(F)cc32)CC1', '%', 31),
  ('O=C(Nc1ccc2c(c1)CNCC2)N1CCC(N2CCc3ccc(F)cc32)CC1', '%', 27),
  ('Cc1cnc(NC(=O)N2CCC(c3noc4ccc(F)cc34)CC2)s1', '%', 86),
  ('O=C(Nc1nc2c(s1)CC(O)CC2)N1CCC(N2CCc3ccc(F)cc32)CC1 (centres unmarked)', '%', 97),
  ('Cc1csc(NC(=O)N2CCC(N3CCc4ccc(F)cc43)CC2)n1', '%', 98),
  ('CNC(=O)c1cccc(NC(=O)N2CCC(n3ccc4ccccc43)CC2)c1', '%', 84);

Input: Quick check: inhibition at 1 µM of `CNC(=O)c1cccc(NC(=O)N2CCC(N3C(=O)Cc4ccccc43)CC2)c1` ?
Output: 7

Input: Record request: inhibition at 1 µM value, item `COC(=O)Cc1cnc(NC(=O)N2CCC(N3CCc4ccc(F)cc43)CC2)s1`
Output: 48

----------
Molecular target: SCD1 (Rattus norvegicus (Rat))
Assay: SCD1 enzymatic assay in rat liver microsomes (RLM)
Format: biochemical
Settings: 1 μM test compound
# inhibition at 1 µM listing for each entry below
A number alone suffices; assume %.

Previously resolved entries follow.
INSERT INTO results (compound, target_desc, result_type, meas_value) VALUES
  ('O=C(Nc1nc(CCO)cs1)N1CCC(c2noc3ccc(F)cc23)CC1', 'SCD1 (Rattus norvegicus (Rat))', 'inhibition at 1 µM', 95),
  ('Cc1csc(NC(=O)N2CCC(N3CCc4ccccc43)CC2)n1', 'SCD1 (Rattus norvegicus (Rat))', 'inhibition at 1 µM', 70),
  ('Cc1csc(NC(=O)N2CCC(c3noc4ccc(F)cc34)CC2)n1', 'SCD1 (Rattus norvegicus (Rat))', 'inhibition at 1 µM', 88);

Input: I am curious: what inhibition at 1 µM value has been reported for `CC(C)(C)OC(=O)N1CCc2nc(NC(=O)N3CCC(N4CCc5ccc(F)cc54)CC3)sc2C1` ?
Output: 35

Input: Fill in the blank: the reported inhibition at 1 µM of `COC(=O)c1cnc(NC(=O)N2CCC(N3CCc4ccc(F)cc43)CC2)s1` is ____.
Output: 62

Input: Look up inhibition at 1 µM: `CNC(=O)c1cccc(NC(=O)N2CCC(c3c[nH]c4ccccc34)CC2)c1`
Output: 15

Input: Field request: inhibition at 1 µM | item: `CCOC(=O)Cc1csc(NC(=O)N2CCC(c3noc4ccc(F)cc34)CC2)n1`
Output: 68

Input: Please look up its inhibition at 1 µM: `CCOC(=O)c1cccc(NC(=O)N2CCC(N3CCc4ccc(F)cc43)CC2)c1`
Output: 53

Input: Looking for the measured inhibition at 1 µM of `O=C(Nc1nc(CO)cs1)N1CCC(N2CCc3ccc(F)cc32)CC1` , can you help?
Output: 94

Input: Entry under review: `Cc1csc(NC(=O)N2CCC(N3CCCc4ccccc43)CC2)n1` . Reported inhibition at 1 µM?
Output: 81

Input: Please report the recorded inhibition at 1 µM for `O=C(Nc1nc(CCO)cs1)N1CCC(N2CCc3ccc(F)cc32)CC1` .
Output: 94

Input: Which inhibition at 1 µM value is on record for `O=C(Nc1nc(CN2CCCCC2)cs1)N1CCC(N2CCc3ccc(F)cc32)CC1` ?
Output: 44

Input: Field request: inhibition at 1 µM | item: `CCCc1nc2ccc(NC(=O)N3CCC(c4noc5ccc(F)cc45)CC3)cc2o1`
Output: 55

Input: Suppose we examine the compound `CCCc1nc2ccc(NC(=O)N3CCC(c4noc5ccc(F)cc45)CC3)cc2s1` ; what inhibition at 1 µM value has been reported?
Output: 79

Input: Data request, read-out inhibition at 1 µM, for `O=C(Nc1nc2c(s1)COCC2)N1CCC(N2CCc3ccc(F)cc32)CC1`
Output: 99

Input: What measured inhibition at 1 µM goes with `CCOC(=O)Cc1csc(NC(=O)N2CCC(N3CCc4ccc(F)cc43)CC2)n1` ?
Output: 80

Input: Fill in: inhibition at 1 µM of CC(C)(C)[Si](C)(C)OC1CCc2nc(NC(=O)N3CCC(N4CCc5ccc(F)cc54)CC3)sc2C1 (stereo not drawn) is ___
Output: 31

Input: Which inhibition at 1 µM reading was recorded for the compound `NC(=O)c1cccc(NC(=O)N2CCC(c3noc4ccc(F)cc34)CC2)c1` ?
Output: 84

----------
Attribute: pIC50
Target: SCD1 (Homo sapiens (Human), UniProt O00767)
Sequence (O00767 whole entry): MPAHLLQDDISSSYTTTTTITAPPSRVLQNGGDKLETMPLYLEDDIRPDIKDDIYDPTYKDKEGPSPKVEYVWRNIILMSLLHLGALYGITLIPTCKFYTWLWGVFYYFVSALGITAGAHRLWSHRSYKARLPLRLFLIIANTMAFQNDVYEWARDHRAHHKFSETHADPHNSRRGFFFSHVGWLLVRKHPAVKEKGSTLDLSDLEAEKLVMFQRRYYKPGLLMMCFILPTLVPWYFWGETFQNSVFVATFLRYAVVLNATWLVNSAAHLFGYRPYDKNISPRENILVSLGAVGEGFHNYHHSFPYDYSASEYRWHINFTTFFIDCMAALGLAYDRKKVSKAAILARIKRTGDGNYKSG
Experiment: SCD1 13C-palmitic acid assay in A431 cells
Assay type: cell-based
Conditions: read-out: A431 cells 13C-PA IC50
The read-out pIC50 is expressed as -log10 of concentration in moles per litre.

INSERT INTO measurements (compound, meas_value) VALUES
  ('O=C(Nc1nc(CO)cs1)N1CCC(N2CCc3ccc(F)cc32)CC1 [Compound 25]', 7.38),
  ('O=C(Nc1nc2c(s1)CNCC2)N1CCC(N2CCc3ccc(F)cc32)CC1 [Compound 36]', 7.80),
  ('O=C(Nc1ncc(CO)s1)N1CCC(N2CCc3ccc(F)cc32)CC1 [Compound 24]', 6.81),
  ('O=C(CO)N1CCc2nc(NC(=O)N3CCC(N4CCc5ccc(F)cc54)CC3)sc2C1 [Compound 35]', 6.95),
  ('CNC(=O)c1cnc(NC(=O)N2CCC(N3CCc4ccc(F)cc43)CC2)s1 [Compound 19]', 6.69),
  ('Cc1csc(NC(=O)N2CCC(c3noc4ccc(F)cc34)CC2)n1 [Compound 6]', 7.27),
  ('O=C(Nc1nc2c(s1)COCC2)N1CCC(c2noc3ccc(F)cc23)CC1 [Compound 63]', 6.75),
  ('NC(=O)c1cnc(NC(=O)N2CCC(N3CCc4ccc(F)cc43)CC2)s1 [Compound 15]', 7.31),
  ('O=C(Nc1nc2c(s1)CN(CCO)CC2)N1CCC(N2CCc3ccc(F)cc32)CC1 [Compound 38]', 6.36),
  ('O=C(Nc1nc(CCO)cs1)N1CCC(c2noc3ccc(F)cc23)CC1 [Compound 54]', 7.42);

Input: I am curious: what pIC50 value has been reported for Cc1csc(NC(=O)N2CCC(N3CCc4ccc(F)cc43)CC2)n1 [Compound 20] ?
Output: 7.68

Input: What pIC50 value was documented for this compound, NC(=O)c1cccc(NC(=O)N2CCC(N3CCc4ccc(F)cc43)CC2)c1 [Compound 16] ?
Output: 7.03

Input: Please report the recorded pIC50 for O=C(Nc1ncc(CCO)s1)N1CCC(N2CCc3ccc(F)cc32)CC1 [Compound 50] .
Output: 8.22

Input: # input compound: O=C1OCc2ccc(NC(=O)N3CCC(N4CCc5ccc(F)cc54)CC3)cc21 [Compound 47] ; wanted: its pIC50
Output: 7.57

Input: State the recorded pIC50 for this entry: O=C(Nc1cccc(CO)c1)N1CCC(N2CCc3ccc(F)cc32)CC1 [Compound 43]
Output: 6.79

Input: For the compound shown here, O=C(Nc1nc2c(s1)CCCC2)N1CCC(N2CCc3ccc(F)cc32)CC1 [Compound 62] , give the reported pIC50.
Output: 7.12

----------
Target: SCD1 (Homo sapiens (Human))
Test: SCD1 14C-palmitate assay in A431 cells
Format: cell-based
Details: read-out: A431 cells 14C-PA IC50
Result type: pIC50
// scale note: pIC50 = -log10(conc_M); give the bare number

Previously resolved entries follow.
INSERT INTO assay_data (smiles, target_desc, meas_value) VALUES
  ('Cc1csc(NC(=O)N2CCC(c3noc4ccc(F)cc34)CC2)n1', 'SCD1 (Homo sapiens (Human))', 6.54),
  ('Cc1csc(NC(=O)N2CCC(N3CCCc4ccccc43)CC2)n1', 'SCD1 (Homo sapiens (Human))', 6.07),
  ('CCCc1nc2ccc(NC(=O)N3CCC(c4noc5ccc(F)cc45)CC3)cc2s1', 'SCD1 (Homo sapiens (Human))', 6.19);

Consider now this further molecule.
Input: Please give the measured pIC50 for this molecule: `CNC(=O)c1cccc(NC(=O)N2CCC(N3CCc4ccccc43)CC2)c1`
Output: 6.12

----------
Target: SCD1 (Homo sapiens (Human), UniProt O00767)
Assay: SCD1 13C-palmitic acid assay in A431 cells
Type: cell-based
Conditions: read-out: A431 cells 13C-PA IC50
Reported pIC50 values are given for each entry in this list.
Field pIC50 (float): negative decimal logarithm of the concentration in molar.

INSERT INTO measurements (compound, meas_value) VALUES
  ('COC(=O)c1cnc(NC(=O)N2CCC(N3CCc4ccc(F)cc43)CC2)s1', 6.66),
  ('O=C1NCCn2nc(NC(=O)N3CCC(N4CCc5ccc(F)cc54)CC3)cc21', 7.52),
  ('O=C(Nc1ncc(CCO)s1)N1CCC(c2noc3ccc(F)cc23)CC1', 7.52);

Input: I would be grateful if you could share the reported pIC50 for O=C(Nc1nc2c(s1)CC(O)CC2)N1CCC(c2noc3ccc(F)cc23)CC1 (stereo not drawn) .
Output: 9.00

Input: Name the reported pIC50 value associated with the compound `NC(=O)c1cccc(NC(=O)N2CCC(c3noc4ccc(F)cc34)CC2)c1`
Output: 6.56

Input: Quick one: pIC50 of `O=C(Nc1nc2c(s1)COCC2)N1CCC(N2CCc3ccc(F)cc32)CC1` ?
Output: 7.77

Input: Fill in the blank: the reported pIC50 of `Cc1cnc(NC(=O)N2CCC(N3CCc4ccc(F)cc43)CC2)s1` is ____.
Output: 6.97

Input: # lookup: pIC50 of `Cc1cnc(NC(=O)N2CCC(c3noc4ccc(F)cc34)CC2)s1`
Output: 6.77

Input: I would be grateful if you could share the reported pIC50 for `O=C(Nc1nc(CCO)cs1)N1CCC(N2CCc3ccc(F)cc32)CC1` .
Output: 7.74
